System: Escherichia coli TOP10
Assay: shrunken log2 fold change of peptide-encoding DNA abundance (4.5 h post-induction vs induction); higher = less antimicrobial activity (less host growth inhibition)
Settings: time post-induction: 4.5 h; library: site-saturation at positions 5, 18, 19, 20
Readings of shrunken log2 fold change for the listed sequences
READOUT_NAME: shrunken log2 fold change

In [3]: df
Out[3]:
           polymer_sequence     experimental_target  observed_measurement
 0  RRIRDRPPRLPRPRPRPGIYPRP  Escherichia coli TOP10                 -0.15
 1  RRIRPRPPRLPRPRPRPGFNPRP  Escherichia coli TOP10                -0.173
 2  RRIRWRPPRLPRPRPRPIIVPRP  Escherichia coli TOP10                -0.138
 3  RRIRYRPPRLPRPRPRPPEMPRP  Escherichia coli TOP10                 0.123
 4  RRIRFRPPRLPRPRPRPRVTPRP  Escherichia coli TOP10                  0.42
 5  RRIRIRPPRLPRPRPRPQNMPRP  Escherichia coli TOP10                -0.235
 6  RRIRDRPPRLPRPRPRPPRWPRP  Escherichia coli TOP10                 0.331
 7  RRIRKRPPRLPRPRPRPDAWPRP  Escherichia coli TOP10               -0.0106
 8  RRIRGRPPRLPRPRPRPPMEPRP  Escherichia coli TOP10               -0.0178
 9  RRIRNRPPRLPRPRPRPIRLPRP  Escherichia coli TOP10               -0.0969
10  RRIRERPPRLPRPRPRPNYLPRP  Escherichia coli TOP10               -0.0974
11  RRIRQRPPRLPRPRPRPWTTPRP  Escherichia coli TOP10               -0.0827
12  RRIRYRPPRLPRPRPRPEVIPRP  Escherichia coli TOP10                 -0.01
13  RRIRWRPPRLPRPRPRPISVPRP  Escherichia coli TOP10                -0.186
14  RRIRTRPPRLPRPRPRPPETPRP  Escherichia coli TOP10                 0.161
15  RRIRHRPPRLPRPRPRPPWHPRP  Escherichia coli TOP10               -0.0707
16  RRIRPRPPRLPRPRPRPICMPRP  Escherichia coli TOP10                -0.343
17  RRIRDRPPRLPRPRPRPNWPPRP  Escherichia coli TOP10                0.0913
18  RRIRVRPPRLPRPRPRPYKGPRP  Escherichia coli TOP10                -0.294
19  RRIRLRPPRLPRPRPRPQSMPRP  Escherichia coli TOP10                -0.197
20  RRIRWRPPRLPRPRPRPQGMPRP  Escherichia coli TOP10                -0.225
21  RRIRKRPPRLPRPRPRPYVCPRP  Escherichia coli TOP10               -0.0742
22  RRIRLRPPRLPRPRPRPHHPPRP  Escherichia coli TOP10                -0.316
23  RRIRLRPPRLPRPRPRPSTIPRP  Escherichia coli TOP10                -0.246
24  RRIRHRPPRLPRPRPRPKCDPRP  Escherichia coli TOP10               -0.0608
25  RRIRERPPRLPRPRPRPFKMPRP  Escherichia coli TOP10                -0.559
26  RRIRIRPPRLPRPRPRPLHAPRP  Escherichia coli TOP10               0.00821
27  RRIRERPPRLPRPRPRPIVWPRP  Escherichia coli TOP10                0.0693
28  RRIRFRPPRLPRPRPRPWCQPRP  Escherichia coli TOP10               -0.0361
29  RRIRARPPRLPRPRPRPVYEPRP  Escherichia coli TOP10                -0.426
30  RRIRMRPPRLPRPRPRPANAPRP  Escherichia coli TOP10                 0.442
31  RRIRARPPRLPRPRPRPAQMPRP  Escherichia coli TOP10                 0.743
32  RRIRARPPRLPRPRPRPPTNPRP  Escherichia coli TOP10                 0.678
33  RRIRLRPPRLPRPRPRPSSSPRP  Escherichia coli TOP10                 0.172
34  RRIRSRPPRLPRPRPRPQCNPRP  Escherichia coli TOP10                 -0.13
35  RRIRLRPPRLPRPRPRPCTKPRP  Escherichia coli TOP10                 -0.22
36  RRIRNRPPRLPRPRPRPIYRPRP  Escherichia coli TOP10                -0.356
37  RRIRLRPPRLPRPRPRPFGFPRP  Escherichia coli TOP10                 -0.15
38  RRIRFRPPRLPRPRPRPHASPRP  Escherichia coli TOP10                -0.259

* * *

System: Escherichia coli TOP10;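 further: peptides expressed intracellularly from a pBAD plasmid library in pooled LB shake-flask culture, induced with 0.3% L-arabinose, DNA abundance read by NGS, three biological replicates, DESeq2 with apeglm shrinkage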
Assay: shrunken log2 fold change of peptide-encoding DNA abundance (4.5 h post-induction vs induction); higher = less antimicrobial activity (less host growth inhibition)
Conditions: time post-induction: 4.5 h; library: site-saturation at positions 5, 18, 19, 20
READOUT_NAME: shrunken log2 fold change

In [3]: df
Out[3]:
           polymer_sequence  observed_measurement
 0  RRIRHRPPRLPRPRPRPVCAPRP                 0.208
 1  RRIRKRPPRLPRPRPRPEWDPRP                  0.12
 2  RRIRSRPPRLPRPRPRPHEMPRP                0.0637
 3  RRIRNRPPRLPRPRPRPWQSPRP               -0.0702
 4  RRIRVRPPRLPRPRPRPREFPRP                 0.126
 5  RRIRTRPPRLPRPRPRPGVFPRP               -0.0409
 6  RRIRERPPRLPRPRPRPFTWPRP                -0.737
 7  RRIRYRPPRLPRPRPRPNYGPRP               -0.0594
 8  RRIRNRPPRLPRPRPRPNRKPRP                   2.2
 9  RRIRSRPPRLPRPRPRPMVMPRP                0.0113
10  RRIRERPPRLPRPRPRPSAGPRP                -0.118
11  RRIRTRPPRLPRPRPRPFSFPRP                -0.341
12  RRIRQRPPRLPRPRPRPKQKPRP               -0.0585
13  RRIRCRPPRLPRPRPRPLRVPRP                0.0985
14  RRIRWRPPRLPRPRPRPWWQPRP                  0.16
15  RRIRGRPPRLPRPRPRPGDYPRP                 0.199
16  RRIRPRPPRLPRPRPRPIHEPRP                 0.152
17  RRIRERPPRLPRPRPRPSDEPRP                -0.228
18  RRIRRRPPRLPRPRPRPVPSPRP                 0.488
19  RRIRRRPPRLPRPRPRPFNSPRP                0.0474
20  RRIRERPPRLPRPRPRPEEGPRP                -0.007
21  RRIRGRPPRLPRPRPRPNCHPRP                 0.415
22  RRIRARPPRLPRPRPRPPNSPRP                 0.136
23  RRIRTRPPRLPRPRPRPMTMPRP                -0.223
24  RRIRRRPPRLPRPRPRPHPIPRP                  0.35
25  RRIRPRPPRLPRPRPRPANKPRP                -0.267
26  RRIRARPPRLPRPRPRPCSDPRP                 0.431
27  RRIRARPPRLPRPRPRPYSVPRP                -0.248
28  RRIRMRPPRLPRPRPRPARGPRP                   1.1
29  RRIRGRPPRLPRPRPRPPFNPRP                  1.66
